# systemTested: UniProt P21802
# procedureDetails: Biochemical FGFR2 Caliper assay
pIC50: −log10 of the molar value.
Recorded pIC50 values for a group of molecules are listed next.

For reference, reported pIC50 for C#Cc1cc(C)c(-c2c(C3=CC[C@@H](C(=O)N4CCCC45CC5)CC3)c3c(N)ncnc3n2C)cn1 stands at > 7.00

For reference, reported pIC50 for C=C(C)C(=O)Nc1ccc(-c2c(C3=CC[C@@H](S(=O)(=O)N4CCCC4)CC3)c3c(N)ncnc3n2C)c(C)c1 stands at 4.00 to 6.00

For reference, reported pIC50 for C#Cc1cc(C)c(-c2c(-c3ccc(Oc4nccc(C)n4)c(F)c3)c3c(N)ncnc3n2C)cn1 [Example 1119] stands at 4.00 to 6.00

For reference, reported pIC50 for Cc1ccnc(Oc2ccc(-c3c(C4=CCN(C(=O)[C@@H]5CO5)C4)n(C)c4ncnc(N)c34)cc2)n1 (single isomer, unassigned) stands at 4.00 to 6.00

For reference, reported pIC50 for C=C1CCN(c2ccc(-c3c(C4=CC[C@H](C(=O)N5CCCC5)CC4)c4c(N)ncnc4n3C)cc2)C1=O (single isomer, unassigned) stands at 6.00 to 6.60

###

# systemTested: FGFR2 (Homo sapiens (Human))
# Sequence (P21802 22-821): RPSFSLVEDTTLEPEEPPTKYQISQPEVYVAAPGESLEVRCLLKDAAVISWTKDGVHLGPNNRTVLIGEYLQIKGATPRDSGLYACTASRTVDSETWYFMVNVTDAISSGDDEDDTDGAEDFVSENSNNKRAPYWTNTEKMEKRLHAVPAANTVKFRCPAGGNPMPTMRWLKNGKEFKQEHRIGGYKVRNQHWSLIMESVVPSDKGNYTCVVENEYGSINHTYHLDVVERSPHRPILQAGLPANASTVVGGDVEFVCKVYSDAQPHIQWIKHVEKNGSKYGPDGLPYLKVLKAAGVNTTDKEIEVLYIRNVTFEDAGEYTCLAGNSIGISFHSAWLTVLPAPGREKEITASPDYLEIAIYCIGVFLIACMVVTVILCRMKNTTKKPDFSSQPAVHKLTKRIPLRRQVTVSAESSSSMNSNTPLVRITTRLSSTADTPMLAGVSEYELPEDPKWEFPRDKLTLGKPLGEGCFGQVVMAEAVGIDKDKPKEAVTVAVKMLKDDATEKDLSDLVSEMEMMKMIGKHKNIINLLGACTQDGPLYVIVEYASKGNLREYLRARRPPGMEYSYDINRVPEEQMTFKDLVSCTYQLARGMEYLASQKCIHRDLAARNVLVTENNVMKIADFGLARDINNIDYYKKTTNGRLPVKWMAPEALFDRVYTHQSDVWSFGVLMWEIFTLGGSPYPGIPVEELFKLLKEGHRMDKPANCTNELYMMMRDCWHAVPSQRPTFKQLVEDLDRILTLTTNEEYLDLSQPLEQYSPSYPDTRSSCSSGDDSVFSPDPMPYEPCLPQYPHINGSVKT
# procedureDetails: FGFR2 Biochemical Caliper Assay
assayReadout: IC50

// below: answered compounds
• C=C(C)C(=O)Nc1ccc(-c2c(-c3ccc(C(=O)NCC4(C#N)CC4)cc3)c3c(N)ncnc3n2C)cc1 = < 100 nM
• C=CC(=O)N1CC[C@H](c2[nH]c3ncnc(N)c3c2-c2ccc(Oc3ncccn3)cc2)C1 = 250 to 1000 nM
• C=C(C)C(=O)Nc1ccc(-c2c(-c3ccc(-c4ncc[nH]4)cc3)c3c(N)ncnc3n2C)cc1 = 250 to 1000 nM
• C=C(C)C(=O)Nc1ccc(-c2c(-c3ccc(C(=O)N(C)Cc4nc(C)no4)cc3)c3c(N)ncnc3n2C)cc1 = 250 to 1000 nM
• C=C(C)C(=O)Nc1ccc(-c2c(-c3ccc(Oc4nccc(CO)n4)c(F)c3)c3c(N)ncnc3n2C)cc1 = < 100 nM

For reference, reported IC50 for C=C(C)C(=O)Nc1ccc(-c2c(-c3ccc(C(=O)NCCCOC)cc3)c3c(N)ncnc3n2C)cc1 stands at 100 to 250 nM

For reference, reported IC50 for C=C(C)C(=O)Nc1ccc(-c2c(-c3ccc(C(=O)NC4CCOC4)cc3)c3c(N)ncnc3n2C)cc1 (stereo not drawn) stands at < 100 nM

For reference, reported IC50 for C=C(C)C(=O)Nc1ccc(-c2c(-c3ccc(S(=O)(=O)NC4COC4)cc3)c3c(N)ncnc3n2C)cc1 stands at 1000 to 100000 nM

For reference, reported IC50 for C=C(C)C(=O)Nc1ccc(-c2c(-c3ccc(C(=O)NCC4CCO4)cc3)c3c(N)ncnc3n2C)cc1 (stereo not drawn) stands at < 100 nM

For reference, reported IC50 for C=CC(=O)N1CCC(n2cc(-c3c(-c4ccc(Oc5cccc(C)n5)cc4)c4c(N)ncnc4n3C)cn2)CC1 stands at < 100 nM

For reference, reported IC50 for C=CC(=O)Nc1ccc(-c2c(-c3cnn(CC4CCNCC4)c3)c3c(N)ncnc3n2C)cc1 stands at 250 to 1000 nM

For reference, reported IC50 for C=CC(=O)N1CCC(c2c(-c3ccc(Oc4cccc(C)n4)c(OC)c3)c3c(N)ncnc3n2C)=CC1C (stereo not drawn) stands at < 100 nM
